assay: Caco-2 cell permeability assay; format: in vitro ADME; settings: human, pH 7.4; Caco-2, apical to basolateral, 10 μM, 2 hours; approximate values
PROPERTY: Papp A→B at 2 h, 10 μM (×10⁻⁶ cm/s)

>>> experimental_result("CCn1cc(-c2nnn[nH]2)c(=O)c2c(N)c(F)c(NCCc3ccccc3)cc21 [Compound I-68]")
0.06
>>> experimental_result("CCn1cc(C#N)c(=O)c2c(N)c(F)c(NCCN[C@@H]3C[C@H]3c3ccccc3)cc21 (relative stereo) [Compound I-84]")
4.1
>>> experimental_result("Nc1c(F)c(N[C@@H]2C[C@H]2c2ccccc2)c(F)c2c1c(=O)c(C(=O)O)cn2C1CC1 (relative stereo) [Compound I-32]")
4.2
>>> experimental_result("CCn1cc(C(=O)O)c(=O)c2cc(F)c(NC3CCCCC3)cc21 [Compound I-1]")
31
>>> experimental_result("CCn1cc(C(=O)O)c(=O)c2c(N)c(F)c(NC3CCCCC3)cc21 [Compound I-7]")
13

1. CCn1cc(C#N)c(=O)c2c(N)c(F)c(N[C@@H]3C[C@H]3c3ccccc3)cc21 (relative stereo) [Compound I-38]
2. CCn1cc(C(=O)O)c(=O)c2c(N)cc(N[C@@H]3C[C@H]3c3ccccc3)cc21 (relative stereo) [Compound I-59]
INPUT: // task: argmin of Papp A→B at 2 h, 10 μM over [ 1 , 2 ] Could you answer with the label of the item you picked?
OUTPUT: 1

// data source = patent US20230058189A1
